# ASSAY_SYSTEM: Voltage-gated inwardly rectifying potassium channel KCNH2 (Homo sapiens) (UniProt Q12809)
# Sequence (Q12809 whole entry, looked up): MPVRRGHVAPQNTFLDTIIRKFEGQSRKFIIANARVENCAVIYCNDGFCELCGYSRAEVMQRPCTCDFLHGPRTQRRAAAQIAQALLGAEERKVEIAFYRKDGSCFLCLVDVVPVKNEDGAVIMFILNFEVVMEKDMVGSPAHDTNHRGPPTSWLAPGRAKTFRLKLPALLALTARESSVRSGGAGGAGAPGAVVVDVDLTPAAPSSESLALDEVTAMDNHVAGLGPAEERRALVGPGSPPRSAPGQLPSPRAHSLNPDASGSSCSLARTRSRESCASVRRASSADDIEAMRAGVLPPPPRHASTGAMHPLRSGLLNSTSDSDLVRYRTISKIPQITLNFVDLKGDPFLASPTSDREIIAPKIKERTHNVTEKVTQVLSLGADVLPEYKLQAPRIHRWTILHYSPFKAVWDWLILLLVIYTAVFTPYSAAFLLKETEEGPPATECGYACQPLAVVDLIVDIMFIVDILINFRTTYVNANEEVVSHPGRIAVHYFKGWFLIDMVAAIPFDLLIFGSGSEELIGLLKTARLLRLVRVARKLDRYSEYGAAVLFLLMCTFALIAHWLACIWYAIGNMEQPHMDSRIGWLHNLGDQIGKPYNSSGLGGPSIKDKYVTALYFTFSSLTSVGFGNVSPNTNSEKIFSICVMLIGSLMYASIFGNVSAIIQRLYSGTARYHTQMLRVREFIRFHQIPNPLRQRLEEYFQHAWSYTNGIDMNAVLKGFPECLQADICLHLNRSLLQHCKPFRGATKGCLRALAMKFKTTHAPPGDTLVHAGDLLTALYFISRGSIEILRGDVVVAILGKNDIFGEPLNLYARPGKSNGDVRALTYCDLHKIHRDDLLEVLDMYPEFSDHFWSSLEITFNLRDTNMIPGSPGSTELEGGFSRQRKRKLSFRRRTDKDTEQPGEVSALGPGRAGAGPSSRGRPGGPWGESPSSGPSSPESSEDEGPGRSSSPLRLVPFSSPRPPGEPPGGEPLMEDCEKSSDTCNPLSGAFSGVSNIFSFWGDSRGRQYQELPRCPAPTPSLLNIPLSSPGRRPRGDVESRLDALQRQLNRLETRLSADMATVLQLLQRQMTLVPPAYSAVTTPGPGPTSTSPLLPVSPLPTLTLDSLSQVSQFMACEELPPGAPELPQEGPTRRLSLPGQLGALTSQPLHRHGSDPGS
# ASSAY_SUMMARY: qHTS Assay for Small Molecule Inhibitors of the Human hERG Channel Activity (AID 588834);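 also: lower thallium flux fluorescence means stronger hERG block; nearly all actives have a fitted effect of over 50% in size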
# RECORDED_CONDITIONS: U2OS BacMam hERG, FluxOR thallium flux fluorescence; series mostly up to 46.1 µM
Records with an inconclusive call do not appear. The source made the active and inactive calls. Calls follow the shape of the dose curve; as a rule, active = well fitted inhibition curve with a large enough effect; inconclusive = small, poorly fitted or top-dose-only effect; inactive = flat fitted curve, though single readings scatter.
Answer with one of the outcomes label 1 for active, label 0 for inactive

# count of solved cases: 10
* COc1ccc2[nH]c3c(c2c1)CCNC3 | label 0
* Cc1cc(C)cc(C(=O)OC2C[C@H]3CC[C@@H](C2)N3C)c1 (some centres undefined) | label 1
* C[C@@H](Cc1ccccc1)NCCC(c1ccccc1)c1ccccc1 | label 1
* CCCN1CCCC2Cc3[nH]ncc3CC21 (centres undefined) | label 0
* C=CCN1C[C@@H](C)N([C@H](c2ccc(C(=O)N(CC)CC)cc2)c2cccc(OC)c2)C[C@@H]1C | label 1
* OC1CCCCC1N1CCC(c2ccccc2)CC1 (centres undefined) | label 0
* C[C@H](Cc1ccc2c(c1)OC(C(=O)O)(C(=O)O)O2)NC[C@H](O)c1cccc(Cl)c1 | label 0
* CC[N+](C)(CC)CCOC(=O)C(O)(c1ccccc1)c1ccccc1 | label 0
* CCON=O | label 0
* Clc1cc(I)cc(Cl)c1NC1=NCCN1 | label 0

Inquiry: Which result was noted for this molecule in the test: NCC(O)c1cccc(O)c1 (centres undefined)
Reply text: label 0

Inquiry: Which result was noted for this molecule in the test: N[C@@H](Cn1oc(=O)[nH]c1=O)C(=O)O
Reply text: label 0

Inquiry: Which result was noted for this molecule in the test: OC(c1ccccc1)(c1ccccc1)C1CN2CCC1CC2 (centres undefined)
Reply text: label 1

Inquiry: Which result was noted for this molecule in the test: ClCC1CO1 (centres undefined)
Reply text: label 0

Inquiry: Which result was noted for this molecule in the test: c1ccc2sc(SNC3CCCCC3)nc2c1
Reply text: label 0

* * *

# ASSAY_SUMMARY: qHTS for differential inhibitors of proliferation of Plasmodium falciparum line Dd2 (AID 1882); also: nearly all actives have a fitted effect of over 65% in size
# RECORDED_CONDITIONS: Plasmodium falciparum Dd2 proliferation inhibition; series mostly up to 28.7 µM
Inconclusive results are not listed. Activity calls are given as the source filed them. Calls follow the shape of the dose curve; as a rule, active = well fitted inhibition curve with a large enough effect; inconclusive = small, poorly fitted or top-dose-only effect; inactive = flat fitted curve, though single readings scatter.
Answer with one of the outcomes YES = active, NO = inactive

Inquiry: Which result was noted for this compound in the test: CN(N=O)c1ccc(O)c(O)c1
Reply text: NO

Inquiry: Which result was noted for this compound in the test: c1ccc2c(N3CCNCC3)cccc2c1
Reply text: YES

Inquiry: Which result was noted for this compound in the test: C[N+]1(C)C2CCC1CC(OC(=O)c1c[nH]c3ccccc13)C2 (stereo not given)
Reply text: YES

Inquiry: Which result was noted for this compound in the test: C/C(O)=C(\C#N)C(=O)Nc1cc(Br)ccc1Br
Reply text: NO

Inquiry: Which result was noted for this compound in the test: CN(N=O)c1cc(O)ccc1O
Reply text: NO

* * *

# ASSAY_SUMMARY: qHTS assay for small molecule disruptors of the mitochondrial membrane potential - 1 hr assay (AID 651754); also: nearly all actives have a fitted effect of over 35% in size
# RECORDED_CONDITIONS: series mostly up to 92.2 µM
Records with an inconclusive call do not appear. Active and inactive are the calls of the source. The call rests on the fitted dose curve.
Answer with one of the outcomes active, inactive

# count of solved cases: 5
- O=[N+]([O-])c1ccccc1: inactive
- CC(C)(C)c1cc(O)ccc1O: inactive
- O=C1C=CC(=O)C=C1: inactive
- ClCC1CO1 (stereo unspecified): inactive
- Oc1cc(Cl)c(Cl)cc1Cl: active

Inquiry: Which result was noted for this compound in the test: C[C@H]1CC[C@@H]2[C@@H](C)[C@H]3[C@H](C[C@H]4[C@@H]5CC=C6CC(O[C@@H]7O[C@H](CO)[C@H](O)[C@H](O[C@@H]8O[C@H](CO)[C@@H](O)[C@H](O)[C@H]8O)[C@H]7O[C@H]7O[C@@H](C)[C@H](O)[C@@H](O)[C@H]7O)CC[C@]6(C)[C@H]5CC[C@]34C)N2C1 (stereo partly specified)
Reply text: active

Inquiry: Which result was noted for this compound in the test: ClC=C(Cl)Cl
Reply text: inactive

* * *

# Tested on: KB-3-1
# ASSAY_SUMMARY: Cytotoxic Profiling of Annotated Libraries Using Quantitative High-Throughput Screening (AID 1296008); also: % is scaled to controls: 0 for no effect and ±100 for the full control effect; nearly all actives have a fitted effect of over 60% in size
# RECORDED_CONDITIONS: Five cell lines viability, CellTiter-Glo ATP luminescence, 48-72 h; active compounds read low
Inconclusive results are not listed. The source made the active and inactive calls. Calls follow the shape of the dose curve; as a rule, active = well fitted inhibition curve with a large enough effect; inconclusive = small, poorly fitted or top-dose-only effect; inactive = flat fitted curve, though single readings scatter.
VALUE_TYPE: max response

- [Cl-].[Cl-].[Hg+2]: -9.23% (inactive)
- O=C1C=C2C=C[C@@H]3C[C@@]2(O1)[C@H]1CCCCN31: -12.4% (inactive)
- COc1ccc(OC)c([C@@H](O)[C@H](C)N)c1: -0.699% (inactive)
- NCC(O)c1cccc(O)c1 (stereo unspecified): 1.34% (inactive)

Inquiry: Would you kindly share the measured max response for CNc1ccc(C(=O)CC(O)CCC(C)C2OC(=O)CC(O)CC(=O)CC(O)CC(O)CC(O)CC(O)CC3(O)CC(O)C(C(=O)OC)C(CC(O[C@@H]4O[C@H](C)[C@@H](O)[C@H](N)[C@@H]4O)/C=C/C=C/C=C/C=C/C=C/C=C/C=C/C2C)O3)cc1 (stereo partly specified) ?
Reply text: -0.469% (inactive)

Inquiry: Would you kindly share the measured max response for CC[C@H]1CN2CC[C@H]1C[C@H]2[C@H](O)c1ccnc2ccc(OC)cc12 ?
Reply text: 0.288% (inactive)

* * *

# Tested on: N140
# ASSAY_SUMMARY: qHTS profiling for inhibitors of Plasmodium falciparum proliferation (AID 504749);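 also: 0% = DMSO vehicle and full inhibition = artemisinin control; nearly all actives have a fitted effect of over 60% in size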
# RECORDED_CONDITIONS: P. falciparum in erythrocytes, SYBR Green DNA, 72 h; series mostly up to 28.7 µM
Results filed as inconclusive are left out. Activity calls are given as the source filed them. Calls follow the shape of the dose curve; as a rule, active = well fitted inhibition curve with a large enough effect; inconclusive = small, poorly fitted or top-dose-only effect; inactive = flat fitted curve, though single readings scatter.
Answer with one of the outcomes active, inactive

# count of solved cases: 2
- O=C1CN=C(c2ccccc2)c2cc(Cl)ccc2N1CC1CC1: inactive
- CCCCCCCCOC(=O)c1ccccc1C(=O)OCCCCCCCC: inactive

Inquiry: Which result was noted for this compound in the test: C=CCN1CC[C@]23c4c5ccc(O)c4O[C@H]2[C@@H](O)C=C[C@H]3[C@H]1C5
Reply text: inactive

Inquiry: Which result was noted for this compound in the test: CC(=O)OC1CN2CCC1CC2 (centres undefined)
Reply text: inactive

* * *

# ASSAY_SUMMARY: Cell Viability - Renal Proximal Tubule (AID 545);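 also: cells exposed to compound for 40 hours; nearly all actives have a fitted effect of over 40% in size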
# RECORDED_CONDITIONS: renal proximal tubule cells viability
Records with an inconclusive call do not appear. Activity calls are given as the source filed them. Calls come from the whole dose curve; as a rule, active = well fitted cell-killing curve with a large enough effect; inconclusive = small, poorly fitted or top-dose-only effect; inactive = flat fitted curve, though single readings scatter.
Answer with one of the outcomes 1 = active, -1 = inactive

Inquiry: Which result was noted for this compound in the test: O=C(O)C(Cl)(Cl)Cl
Reply text: -1

Inquiry: Which result was noted for this compound in the test: [Cl-].[Cl-].[Hg+2]
Reply text: 1

Inquiry: Which result was noted for this compound in the test: Clc1ccccc1Cl
Reply text: -1

Inquiry: Which result was noted for this compound in the test: O=C/C=C/c1ccccc1
Reply text: -1

* * *

# ASSAY_SUMMARY: Quantitative high throughput screen for delayed death inhibitors of the malarial parasite plastid, 48 hour incubation (AID 488752); also: % is scaled to controls: 0 for no effect and ±100 for the full control effect; nearly all actives have a fitted effect of over 65% in size
# RECORDED_CONDITIONS: Plasmodium falciparum growth; series mostly up to 28.7 µM
Results filed as inconclusive are left out. The source made the active and inactive calls. The call rests on the fitted dose curve; in most records, active means well fitted inhibition curve with a large enough effect; inconclusive means small, poorly fitted or top-dose-only effect, or effect the other way; inactive means flat fitted curve, though single readings scatter.
Answer with one of the outcomes active, inactive

# count of solved cases: 4
* NC(N)=NOCC[C@H](N)C(=O)O | inactive
* C=CCN1CCC23c4c5ccc(O)c4O[C@H]2C(=O)CC[C@@]3(O)C1C5 (stereo not given in full) | inactive
* CC(N)c1cccc(Cl)c1Cl (stereo not given) | inactive
* C[N+]1(C)CCN(c2ccccc2)CC1 | inactive

Inquiry: Which result was noted for this compound in the test: C[N+](C)(C)CCOC(=O)CBr
Reply text: inactive

Inquiry: Which result was noted for this compound in the test: NC(N)=Nc1ccc2[nH]c3c(c2c1)C[C@@]1(O)[C@H]2Cc4ccc(O)c5c4[C@@]1(CCN2CC1CC1)[C@H]3O5
Reply text: inactive

Inquiry: Which result was noted for this compound in the test: Clc1cc(I)cc(Cl)c1NC1=NCCN1
Reply text: inactive

* * *

# ASSAY_SYSTEM: M-phase phosphoprotein 8 (Homo sapiens) (UniProt Q99549)
# Sequence (Q99549 whole entry, looked up): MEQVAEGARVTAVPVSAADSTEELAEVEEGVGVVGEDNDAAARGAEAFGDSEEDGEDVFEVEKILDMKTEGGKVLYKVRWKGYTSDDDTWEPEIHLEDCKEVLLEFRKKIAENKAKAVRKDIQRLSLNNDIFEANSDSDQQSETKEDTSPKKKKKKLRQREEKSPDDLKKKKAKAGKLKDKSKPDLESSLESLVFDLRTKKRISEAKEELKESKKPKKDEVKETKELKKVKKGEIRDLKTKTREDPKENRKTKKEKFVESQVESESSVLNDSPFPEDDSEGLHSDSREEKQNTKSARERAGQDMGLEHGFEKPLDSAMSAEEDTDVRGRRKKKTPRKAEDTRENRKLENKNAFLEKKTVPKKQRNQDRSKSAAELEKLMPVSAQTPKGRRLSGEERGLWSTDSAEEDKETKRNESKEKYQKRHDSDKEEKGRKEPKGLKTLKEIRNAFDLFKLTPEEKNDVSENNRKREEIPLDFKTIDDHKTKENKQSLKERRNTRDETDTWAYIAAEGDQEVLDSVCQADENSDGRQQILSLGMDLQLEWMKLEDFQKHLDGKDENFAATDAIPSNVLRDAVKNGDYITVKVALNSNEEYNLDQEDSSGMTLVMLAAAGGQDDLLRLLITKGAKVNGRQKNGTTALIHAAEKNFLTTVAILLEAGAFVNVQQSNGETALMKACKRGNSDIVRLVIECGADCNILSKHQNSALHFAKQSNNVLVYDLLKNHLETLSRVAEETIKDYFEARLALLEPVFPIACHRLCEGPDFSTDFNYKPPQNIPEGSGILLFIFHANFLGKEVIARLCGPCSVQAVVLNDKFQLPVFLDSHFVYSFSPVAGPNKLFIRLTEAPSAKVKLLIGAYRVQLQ
# ASSAY_SUMMARY: qHTS Validation Assay for Inhibitors for MPP8 Chromodomain Interactions with Methylated Histone Tails (AID 488949); also: nearly all actives have a fitted effect of over 55% in size
# RECORDED_CONDITIONS: AlphaScreen MPP8 binding to H3K9me3 peptide; series mostly up to 57.1 µM
Records with an inconclusive call do not appear. The source made the active and inactive calls. Calls follow the shape of the dose curve; as a rule, active = well fitted inhibition curve with a large enough effect; inconclusive = small, poorly fitted or top-dose-only effect; inactive = no such curve, though single readings can be large or run the other way.
Answer with one of the outcomes active, inactive

# count of solved cases: 8
* Cc1o[nH]c(=O)c1CC(N)C(=O)O (centres undefined) | inactive
* c1ccc2cc(CC3=NCCN3)ccc2c1 | inactive
* C[N+]1(C)CCOC(O)(c2ccc(-c3ccc(C4(O)C[N+](C)(C)CCO4)cc3)cc2)C1 (centres undefined) | inactive
* C/C(O)=C(\C#N)C(=O)Nc1cc(Br)ccc1Br | inactive
* CC(N)[C@H](O)c1ccc(O)c(O)c1 (some centres undefined) | active
* CC1OC1P(=O)(O)O (centres undefined) | inactive
* NCCCP(=O)(O)O | inactive
* CCOC(=O)c1ncn2c1[C@@H]1CCCN1C(=O)c1cc(OC)ccc1-2 | inactive

# input for lookup
Inquiry: Which result was noted for this molecule in the test: N#CC(C#N)=Cc1cc(O)c(O)c(O)c1
Reply text: active
